Entries and their measured IC50 follow.
Target: Human immunodeficiency virus type 1 reverse transcriptase (Human immunodeficiency virus 1)
Conditions: read-out: IC50 (converted)

Guide cases for IC50, answers given:
compound: CC[C@H]1CN2CCc3cc(OC)c(OC)cc3[C@@H]2C[C@@H]1CC1=NCCc2cc(OC)c(OC)cc21
IC50: 17.3 µM
--
compound: CC[C@H]1CN2CCc3cc(OC)c(OC)cc3[C@@H]2C[C@@H]1CC1=NCCc2cc(O)c(OC)cc21
IC50: > 430 µM
--
compound: O=C1CCC[C@H]2[C@@H]3CCCN4CCC[C@H](CN12)[C@@H]34
IC50: > 805 µM

Ask | Dear colleague, please send me the reported IC50 for CC(=O)O[C@@H]1[C@@H](O)[C@H](O[C@H]2[C@H](OC(=O)[C@H]3CC[C@@H]4[C@H](C3)O[C@@]3(C[C@H](OC(=O)/C=C/c5ccccc5)[C@H](C)CO3)[C@]43CO3)O[C@H](C)[C@@H](O)[C@@H]2OC(C)=O)O[C@H](C)[C@H]1O [PHYLLANTHOSIDE] when you can.
Reply | > 248 µM

Ask | Supply reported IC50 belonging to this compound: C=C1C/C(=C/C)C(=O)O[C@@H]2CCN3CC=C(COC(=O)[C@]1(C)O)[C@H]23
Reply | > 600 µM

Ask | Respond only with IC50 recorded for C/C=C1/CN[C@H]2Cc3c([nH]c4ccccc34)C(=O)C[C@@H]1[C@@H]2C(=O)OC
Reply | > 591 µM

Ask | Read off the recorded IC50 for C=C(C)[C@@H]1[C@H]2OC(=O)[C@@H]1[C@]1(O)C[C@H]3OC34C(=O)O[C@H]2[C@@]41C.CC(C)(O)[C@@H]1[C@H]2OC(=O)[C@@H]1[C@]1(O)C[C@H]3OC34C(=O)O[C@H]2[C@@]41C (stereo partly drawn)
Reply | > 332 µM

Ask | Look up and state reported IC50 for C/C=C1/CN2[C@H]3C[C@H]1[C@@H](CO)[C@@H]2Cc1c3[nH]c2ccc(O)cc12
Reply | > 644 µM

Ask | Return value of IC50 for input COc1cc2c(cc1OC)[C@@H]1Cc3ccc(OC)c(OC)c3CN1CC2 [TETRAHYDROPALMATINE] , no commentary.
Reply | > 563 µM

Ask | Return IC50 (reported value) for this compound: C=C(C)C(O)C(O)c1cc2ccc(=O)oc2cc1OC (stereo not drawn)
Reply | > 724 µM

###

Biological target: Human immunodeficiency virus type 1 reverse transcriptase (Human immunodeficiency virus 1)
Details: read-out: IC50 (converted)
Structures can show the parent of a compound that is named as a salt.
endpoint name: IC50

Example compounds with recorded IC50:
compound: C/C=C/C=C1\C=Cc2c(C(=O)OC)coc(=O)c21 [FULVOPLUMIERIN]
measured on: Human immunodeficiency virus type 1 reverse transcriptase (Human immunodeficiency virus 1)
IC50: 184 µM

compound: O=c1c(O)c(-c2ccc(O)cc2)oc2cc(O)cc(O)c12 [KAEMPFEROL]
measured on: Human immunodeficiency virus type 1 reverse transcriptase (Human immunodeficiency virus 1)
IC50: < 524 µM

compound: CC(=O)O[C@H]1C(=O)[C@@]2(C)[C@H]([C@H](OC(=O)c3ccccc3)[C@]3(O)C[C@H](OC(=O)[C@H](O)[C@@H](NC(=O)c4ccccc4)c4ccccc4)C(C)=C1C3(C)C)[C@]1(OC(C)=O)CO[C@@H]1C[C@@H]2O [PACLITAXEL]
measured on: Human immunodeficiency virus type 1 reverse transcriptase (Human immunodeficiency virus 1)
IC50: > 234 µM

compound: C[C@H]1CC[C@]2(NC1)O[C@H]1C[C@H]3[C@@H]4CC[C@H]5C[C@@H](O[C@@H]6O[C@H](CO)[C@H](O[C@@H]7O[C@H](CO)[C@@H](O)[C@H](O[C@@H]8OC[C@@H](O)[C@H](O)[C@H]8O)[C@H]7O[C@@H]7O[C@H](CO)[C@@H](O)[C@H](O)[C@H]7O)[C@H](O)[C@H]6O)CC[C@]5(C)[C@H]4CC[C@]3(C)[C@H]1[C@@H]2C [TOMATINE]
measured on: Human immunodeficiency virus type 1 reverse transcriptase (Human immunodeficiency virus 1)
IC50: > 193 µM

compound: CC[C@@]1(O)C(=O)OCc2c1cc1n(c2=O)Cc2cc3ccccc3nc2-1 [CAMPTOTHECIN]
measured on: Human immunodeficiency virus type 1 reverse transcriptase (Human immunodeficiency virus 1)
IC50: > 574 µM

Ask | Return reported IC50 for target or system Human immunodeficiency virus type 1 reverse transcriptase (Human immunodeficiency virus 1), item C/C=C1/CN(C(C)=O)[C@H]2Cc3c([nH]c4ccccc34)C(=O)C[C@@H]1[C@@H]2C(=O)OC .
Reply | > 526 µM

Ask | State IC50 on Human immunodeficiency virus type 1 reverse transcriptase (Human immunodeficiency virus 1). Entry: COC(=O)CC1(O)C=CC(=O)C=C1 [JACARANONE]
Reply | > 1100 µM

Ask | Send back Human immunodeficiency virus type 1 reverse transcriptase (Human immunodeficiency virus 1) IC50 of CC1(C)O[C@H]2CC(=O)OC[C@]23[C@H]2CC[C@@]4(C)[C@H](c5ccoc5)OC(=O)[C@H]5O[C@]54[C@]2(C)C(=O)C[C@@H]13 [LIMONIN] only.
Reply | > 425 µM

Ask | Enter recorded IC50 with Human immunodeficiency virus type 1 reverse transcriptase (Human immunodeficiency virus 1) for C1CN[C@@H]2[C@@H](C1)[C@@H]1CC2([C@H]2CCC[C@H](C3CC[C@@H]4N[C@H]3N3CCC[C@H]5C[C@@H]6C[C@]4(CN4CCCC[C@H]64)[C@@H]53)N2)CN2CCCC[C@H]12 (stereo partly specified) [ORMOSININE] here.
Reply | > 324 µM

Ask | State, for Human immunodeficiency virus type 1 reverse transcriptase (Human immunodeficiency virus 1), measured IC50 of the compound listed here: COc1ccc2cc1Oc1ccc(cc1)C[C@H]1c3cc(c(OC)cc3CCN1C)Oc1c(OC)c(OC)c(OC)c3c1[C@H](C2)N(C)CC3 [HERNANDEZINE]
Reply | > 306 µM

Ask | Write down measured IC50 (Human immunodeficiency virus type 1 reverse transcriptase (Human immunodeficiency virus 1)) for this compound. CC[C@]12CN3CCc4c([nH]c5ccccc45)[C@@](C(=O)OC)(c4cc5c(cc4OC)N(C)[C@H]4[C@@](O)(C(=O)OC)[C@H](OC(C)=O)[C@]6(CC)C=CCN7CC[C@]54[C@@H]76)C[C@@H](C3)[C@H]1O2 [VINLEUROSINE SULFATE]
Reply | > 233 µM
